target: recombinant hMAO-B (Homo sapiens); construct: purchased Fluka-Sigma-Aldrich s.r.l; (Italy); host or cells: Baculovirus infected BT1 cells; assay: hMAO-B activity assay (kynuramine, fluorimetric); assay type: biochemical; details: calculated as hMAO-A Ki/hMAO-B Ki
Sequence (P27338 whole entry): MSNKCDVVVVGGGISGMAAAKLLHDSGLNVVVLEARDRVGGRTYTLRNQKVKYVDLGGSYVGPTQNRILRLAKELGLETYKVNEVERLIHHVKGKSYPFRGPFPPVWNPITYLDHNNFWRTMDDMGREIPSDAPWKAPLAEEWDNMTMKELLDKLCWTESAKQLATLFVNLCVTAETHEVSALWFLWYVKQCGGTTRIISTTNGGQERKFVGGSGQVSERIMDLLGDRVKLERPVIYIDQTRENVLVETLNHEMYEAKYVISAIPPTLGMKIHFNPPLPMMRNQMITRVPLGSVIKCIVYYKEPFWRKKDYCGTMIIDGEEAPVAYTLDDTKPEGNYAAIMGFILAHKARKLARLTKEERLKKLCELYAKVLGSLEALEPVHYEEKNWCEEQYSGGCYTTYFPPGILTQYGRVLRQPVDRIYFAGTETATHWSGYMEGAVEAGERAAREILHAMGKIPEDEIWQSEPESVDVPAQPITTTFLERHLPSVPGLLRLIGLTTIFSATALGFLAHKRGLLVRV
recordedMetric: SI (selectivity index)
// no unit string in output, number only

As a guide, the following entries are already answered.
[
  {
    "molecule": "COC(=O)/C=C/C(=O)Oc1ccc(CC2SC(=O)NC2=O)cc1 (stereo not drawn) [Compound 1]",
    "experimentalResult": 8.0
  },
  {
    "molecule": "COc1cc(/C=C/C(=O)Nc2ccc(CC3SC(=O)NC3=O)cc2)ccc1O (stereo not drawn) [Compound 5]",
    "experimentalResult": 14.2
  },
  {
    "molecule": "COc1cc(/C=C/C(=O)Oc2ccc(CC3SC(=O)NC3=O)cc2)ccc1O (stereo not drawn) [Compound 3]",
    "experimentalResult": 32.3
  },
  {
    "molecule": "O=C(/C=C/c1ccc(O)c(O)c1)OCCc1ccccc1 [CAPE, caffeic acid phenethyl ester, reference compound]",
    "experimentalResult": 6.7
  }
]

QUERY: // query SI (selectivity index) value for entry O=C(/C=C/c1ccc(O)c(O)c1)Oc1ccc(CC2SC(=O)NC2=O)cc1 (stereo not drawn) [Compound 2]
RESULT: 66

QUERY: // query SI (selectivity index) value for entry O=C(/C=C/c1ccc(O)c(O)c1)Nc1ccc(CC2SC(=O)NC2=O)cc1 (stereo not drawn) [Compound 4]
RESULT: 15.6

meta.source: paper PMC10650714
